Origin of the recorded values: patent US7595401B2

Reported values of IC50 for individual entries
# TEST_TARGET: purified human Hsp90
# METHOD_NOTES: Binding Assay: fluorescence polarization with BODIPY-labeled geldanamycin
# MEASUREMENT_PARAMETERS: BODIPY-GM 10 nM, Hsp90 30 nM
QUANTITY: IC50 (nM)

INSERT INTO assay_data (molecule, unit_descriptor, value_operator, observed_result) VALUES
  ('Nc1ncnc2c1nc(Sc1ccc3c(c1)OC(F)(F)O3)n2CCc1ccccc1', 'nM', '>', 25000),
  ('CC12CCC(CC(CCn3c(Sc4cc5c(cc4Br)OCO5)nc4c(N)ncnc43)C1)O2 (stereo not shown)', 'nM', '=', 62),
  ('Nc1ncnc2c1nc(Sc1cc3c(cc1Br)OCO3)n2CC[C@@H]1CCCCN1', 'nM', '=', 467),
  ('COc1ccc(OC)c(Sc2nc3c(N)ncnc3n2CCc2c(C)cc(C)cc2C)c1', 'nM', '=', 1700);

---

# TEST_TARGET: purified human Hsp90
# METHOD_NOTES: Binding Assay: fluorescence polarization with BODIPY-labeled geldanamycin
# MEASUREMENT_PARAMETERS: BODIPY-GM 10 nM, Hsp90 30 nM
pIC50: −log10 of the molar value.
Reported values of pIC50 for individual entries
QUANTITY: pIC50

INSERT INTO results (compound, quantity, value_operator, observed_result) VALUES
  ('COc1ccc(C)cc1Sc1nc2c(N)ncnc2n1CCc1ccccc1', 'pIC50', '=', 5.17),
  ('CC(C)(C)OC(=O)N1CC(CCn2c(Sc3cc4c(cc3Br)OCO4)nc3c(N)ncnc32)C1', 'pIC50', '=', 6.42),
  ('COc1cc(C#N)c(Sc2nc3c(N)ncn(CCC4CCN(C(C)=O)CC4)c-3n2)cc1OC', 'pIC50', '<', 5.40),
  ('Cc1cc(=O)oc2cc(Sc3nc4c(N)ncnc4n3CCC3CCN(C=O)CC3)ccc12', 'pIC50', '=', 5.30),
  ('C[C@H](NC(=O)OC(C)(C)C)C(=O)N1CCC(CCn2c(Sc3nc4cccc(Cl)c4s3)nc3c(N)ncnc32)CC1', 'pIC50', '=', 6.41),
  ('CC(C)CN1CCCCC1CCn1c(Sc2cc3c(cc2Br)OCO3)nc2c(N)ncnc21 (stereo not drawn)', 'pIC50', '=', 6.68),
  ('Nc1ncnc2c1nc(Sc1cc3c(cc1Br)OCO3)n2CC[C@H]1CCCN(C=O)C1', 'pIC50', '=', 6.72),
  ('Nc1ncnc2c1nc(Sc1cc3c(cc1Br)OCO3)n2CCC1CCN(S(=O)(=O)C(F)(F)F)CC1', 'pIC50', '<', 5.10),
  ('Nc1ncnc2c1nc(Sc1cc3c(cc1Br)OCO3)n2CCC1(F)C(F)(F)C(F)(F)C(F)(F)C(F)(F)C1(F)F', 'pIC50', '<', 6.00),
  ('CCOP(=O)(OCC)N1CCCCC1CCn1c(Sc2cc3c(cc2Br)OCO3)nc2c(N)ncnc21 (stereo not drawn)', 'pIC50', '=', 5.30),
  ('Cc1ccsc1Sc1nc2c(N)ncnc2n1CCC1CCN(C=O)CC1', 'pIC50', '<', 5.30),
  ('CC(C)[C@H](N)C(=O)N1CCCC(CCn2c(Sc3cc4c(cc3Br)OCO4)nc3c(N)ncnc32)C1 (stereo partly drawn)', 'pIC50', '=', 6.91),
  ('CC(C)(C)OC(=O)NC(CCn1c(Sc2cc3c(cc2Br)OCO3)nc2c(N)ncnc21)C1CCOCC1 (stereo not drawn)', 'pIC50', '=', 6.72),
  ('Cc1cc(C)c(CCn2c(Sc3cc4c(cc3Br)OCO4)nc3c(N)ncnc32)c(C)c1', 'pIC50', '=', 6.72),
  ('C=Cn1c(S(=O)(=O)c2cc(OC)ccc2OC)nc2c(N)ncnc21', 'pIC50', '=', 5.15),
  ('Nc1ncnc2c1nc(Sc1ccc3c(c1)OCO3)n2CCn1cccc1', 'pIC50', '=', 5.92),
  ('COc1ccc(CN2CCCCC2CCn2c(Sc3cc4c(cc3Br)OCO4)nc3c(N)ncnc32)cc1 (stereo not drawn)', 'pIC50', '=', 6.30),
  ('COc1ccc(OC)c(Sc2nc3c(N)ncnc3n2CCc2ccccc2[N+](=O)[O-])c1', 'pIC50', '=', 6.62),
  ('CCCN1CCCCC1CCn1c(Sc2cc3c(cc2Br)OCO3)nc2c(N)ncnc21 (stereo not drawn)', 'pIC50', '=', 6.96),
  ('Nc1ncnc2c1nc(Sc1cc3c(cc1Br)OCO3)n2CCC1CCN(C(=O)[C@H]2C[C@@H]2F)CC1', 'pIC50', '=', 7.28),
  ('Nc1ncnc2c1nc(Sc1cc3c(cc1Br)OCO3)n2CCN1CCCC1=O', 'pIC50', '=', 5.85),
  ('COc1ccc(OC)c(Sc2nc3c(N)ncnc3n2CCc2ccc(O)cc2)c1', 'pIC50', '=', 5.54),
  ('CC1(C)C(C(=O)N2CCC(CCn3c(Sc4cc5c(cc4Br)OCO5)nc4c(N)ncnc43)CC2)C1(C)C', 'pIC50', '<', 5.70),
  ('COc1ccc(OC)c(Sc2nc3c(N)ncnc3n2CCc2cc(C)cc(C)c2)c1', 'pIC50', '=', 6.30),
  ('CC(C)(C)OC(=O)N1CCC[C@H](CCn2c(Sc3cc4c(cc3Br)OCO4)nc3c(N)ncnc32)C1', 'pIC50', '=', 5.54),
  ('Nc1ncnc2c1nc(Sc1cc3c(cc1Br)OCO3)n2CCC(N)C1CCOCC1 (stereo not drawn)', 'pIC50', '=', 5.70),
  ('CC1(C)CNCCC1CCn1c(Sc2cc3c(cc2Br)OCO3)nc2c(N)ncnc21 (stereo not drawn)', 'pIC50', '=', 7.15),
  ('CC(C)N1CCN(CCn2c(Sc3cc4c(cc3Br)OCO4)nc3c(N)ncnc32)CC1', 'pIC50', '=', 6.05),
  ('COc1ccc(OC)c(Sc2nc3c(N)ncnc3n2CCc2ccccc2C)c1', 'pIC50', '=', 6.60),
  ('Nc1ncn(CCc2ccccc2)c2nc(Sc3cc4c(cc3I)OCO4)nc1-2', 'pIC50', '<', 5.00),
  ('CS(=O)(=O)N1CCCC(CCn2cnc(N)c3nc(Sc4cc5c(cc4Br)OCO5)nc2-3)C1 (stereo not drawn)', 'pIC50', '=', 6.22),
  ('Nc1ncnc2c1nc(Sc1cc3c(cc1Br)OCO3)n2CCC1CCCNC1 (stereo not drawn)', 'pIC50', '=', 7.22),
  ('Nc1ncnc2c1nc(Sc1cc3c(cc1Br)OCO3)n2CCc1ccccc1F', 'pIC50', '=', 7.36);

---

# TEST_TARGET: purified human Hsp90
# METHOD_NOTES: Binding Assay: fluorescence polarization with BODIPY-labeled geldanamycin
# MEASUREMENT_PARAMETERS: BODIPY-GM 10 nM, Hsp90 30 nM
Mark each entry t if its IC50 sits below 0.6 µM, and f for all others.

INSERT INTO results (compound, answer_label) VALUES
  ('COc1ccc(OC)c(Sc2nc3c(N)nc(F)nc3n2CCc2ccccc2)c1 [Example 230]', 't'),
  ('C[C@H](O)C(=O)N1CCC(CCn2c(Sc3nc4cccc(Cl)c4s3)nc3c(N)ncnc32)CC1 [Example 775]', 'f'),
  ('COc1ccc(OC)c(Sc2nc3c(N)ncnc3n2CCc2cc(F)cc(F)c2)c1 [Example 143]', 'f'),
  ('Nc1ncnc2c1nc(Cc1cc3c(cc1Br)OCO3)n2CCc1ccccc1 [Example 209]', 't'),
  ('Nc1ncnc2c1nc(Sc1cc3c(cc1Br)OCO3)n2CCC1CCN(Cc2ccc(Cl)cc2)CC1 [Example 573]', 'f'),
  ('COc1ccc(OC)c(Sc2nc3c(N)ncnc3n2CCc2ccc([N+](=O)[O-])cc2)c1 [Example 8]', 'f'),
  ('CC(C)(C)OC(=O)NC1(C(=O)N2CCC(CCn3c(Sc4cc5c(cc4Br)OCO5)nc4c(N)ncnc43)CC2)CC1 [Example 709]', 't'),
  ('C[C@H](NC(=O)OC(C)(C)C)C(=O)N1CCC(CCn2c(Sc3cc4c(cc3Br)OCO4)nc3c(N)ncnc32)CC1 [Example 693]', 't'),
  ('C[C@H](O)C(=O)N1CCC(CCn2c(Sc3ccc4c(c3)CCO4)nc3c(N)ncnc32)CC1 [Example 768]', 'f'),
  ('COc1cc(Sc2nc3c(N)ncnc3n2CCc2ccc(Cl)cc2)cc(OC)c1OC [Example 31]', 'f'),
  ('CC(C)(C)OC(=O)N1CCCC(Cn2c(Sc3cc4c(cc3Br)OCO4)nc3c(N)ncnc32)C1 (centres unmarked) [Example 641]', 'f'),
  ('CC(=O)N1CCC(CCn2c(Sc3nc4ccccc4s3)nc3c(N)ncnc32)CC1 [Example 659]', 'f'),
  ('COc1ccc(OC)c(Sc2nc3c(N)ncnc3n2CCC2CCCCC2)c1 [Example 169]', 't'),
  ('COc1ccc(OC)c(Sc2nc3c(N)ncnc3n2CCc2c(F)cccc2Cl)c1 [Example 122]', 't'),
  ('CC(C)(C)NS(=O)(=O)c1ccc(CCn2c(Sc3cc4c(cc3Br)OCO4)nc3c(N)ncnc32)cc1 [Example 273]', 'f'),
  ('CCC(Cn1cnc(N)c2nc(Sc3cc(OC)ccc3OC)nc1-2)c1ccccc1 (centres unmarked) [Example 88]', 'f'),
  ('COc1cc(F)c(Sc2nc3c(N)ncnc3n2CCC2CCN(C(C)=O)CC2)cc1F [Example 559]', 'f'),
  ('C[C@@H](NC(=O)OC(C)(C)C)C(=O)N1CCC[C@@H](CCn2c(Sc3cc4c(cc3Br)OCO4)nc3c(N)ncnc32)C1 [Example 734]', 'f'),
  ('Nc1ncnc2c1nc(Sc1cccc(OC(F)F)c1)n2CCc1ccccc1 [Example 252]', 'f'),
  ('Nc1ncnc2c1nc(Sc1cc3c(cc1Br)OCO3)n2CC1CCNCC1 [Example 648]', 'f'),
  ('CC(C)(C)OC(=O)N1CCCC1CCn1c(Sc2cc3c(cc2Br)OCO3)nc2c(N)ncnc21 (centres unmarked) [Example 414]', 't'),
  ('C[C@H](N)C(=O)N1CCCC(CCn2c(Sc3cc4c(cc3Br)OCO4)nc3c(N)ncnc32)C1 (some centres unmarked) [Example 747]', 't'),
  ('COc1ccc(C2(Cn3c(Sc4cc5c(cc4Br)OCO5)nc4c(N)ncnc43)CC2)cc1 [Example 59]', 'f'),
  ('COc1cc(Sc2nc3c(N)ncnc3n2CCc2c(F)cccc2Cl)c(OC)cc1Cl [Example 256]', 't'),
  ('COc1ccc(OC)c(Sc2nc3c(N)ncnc3n2CCc2cccc(Cl)c2Cl)c1 [Example 73]', 'f'),
  ('C[C@H](O)C(=O)N1CCC(CCn2c(Sc3cc4c(cc3Br)OCO4)nc3c(N)ncnc32)CC1 [Example 757]', 't'),
  ('Nc1ncn(CCN2C(=O)CCCC2=O)c2nc(Sc3cc4c(cc3Br)OCO4)nc1-2 [Example 497]', 'f'),
  ('COc1cc(Sc2nc3c(N)ncnc3n2CCc2ccccc2)c(OC)cc1Cl [Example 257]', 'f'),
  ('COc1ccc(OC)c(Sc2nc3c(N)ncnc3n2CCc2ccccc2Br)c1 [Example 141]', 't'),
  ('Nc1ccccc1CCn1c(Sc2cc3c(cc2Br)OCO3)nc2c(N)ncnc21 [Example 282]', 't');
